Data provenance: ChEMBL document CHEMBL1201862

# method description: HEK-293T cell viability reduction – luminescence, B-cell screen hits, cytotoxicity control for BCR NF-kB inhibitor project, dose response (AID 489021);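 also: HEK-293T cells carrying an NF-kB luciferase reporter; cells exposed to compound for about 14 hours before viability readout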
# Format: functional, cell-based
Activity calls are given as the source filed them. No rule for the calls is given here.
The entries below come with measured IC50 values attached.

CCC(C)N1C(=O)/C(=C/c2c(NCCCOC(C)C)nc3c(C)cccn3c2=O)SC1=S (stereo not given) ... > 80 µM (inactive)
CCOc1ccc(-c2cc(CCCC(=O)NCc3ccco3)no2)cc1 ... > 80 µM (inactive)

# query: IC50 of entry "COc1ccc(/C=C2/SC(=S)N(CCC(=O)O)C2=O)cc1"
> 80 µM (inactive)

# query: IC50 of entry "COc1ccc2nc(C)cc(Sc3nc4ccccc4s3)c2c1"
> 80 µM (inactive)

# query: IC50 of entry "Cc1ccc(Nc2nc(N3CCOCC3)nc(N3CCOCC3)n2)cc1C"
> 80 µM (inactive)
